- STUDY_SYSTEM: furin, P09958;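 also: purified furin at 1:10 enzyme:substrate in 50 mM HEPES pH 7.5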
- Sequence (P09958 whole entry): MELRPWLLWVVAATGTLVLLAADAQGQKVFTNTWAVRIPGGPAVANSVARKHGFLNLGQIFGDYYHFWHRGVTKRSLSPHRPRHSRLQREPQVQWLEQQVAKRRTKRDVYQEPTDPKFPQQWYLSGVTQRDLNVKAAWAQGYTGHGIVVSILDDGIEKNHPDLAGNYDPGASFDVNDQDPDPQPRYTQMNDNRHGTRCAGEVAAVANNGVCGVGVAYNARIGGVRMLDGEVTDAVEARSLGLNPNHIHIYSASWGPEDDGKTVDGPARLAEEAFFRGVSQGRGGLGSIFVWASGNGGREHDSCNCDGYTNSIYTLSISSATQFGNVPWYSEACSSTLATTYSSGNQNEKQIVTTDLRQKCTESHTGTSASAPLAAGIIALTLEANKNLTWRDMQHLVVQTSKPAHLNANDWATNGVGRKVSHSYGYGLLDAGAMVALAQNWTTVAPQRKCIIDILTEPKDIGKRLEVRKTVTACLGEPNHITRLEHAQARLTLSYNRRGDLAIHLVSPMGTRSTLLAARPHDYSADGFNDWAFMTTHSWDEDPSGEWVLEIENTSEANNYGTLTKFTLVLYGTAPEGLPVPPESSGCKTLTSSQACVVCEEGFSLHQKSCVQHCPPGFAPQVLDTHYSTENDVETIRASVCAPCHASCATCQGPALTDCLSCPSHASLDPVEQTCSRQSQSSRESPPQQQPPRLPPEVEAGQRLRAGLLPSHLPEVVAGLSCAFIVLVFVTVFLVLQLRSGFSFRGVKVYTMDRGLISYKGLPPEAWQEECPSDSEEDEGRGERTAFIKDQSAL
- PROTOCOL_NOTES: furin cleavage Z-score vs untreated control; higher = more cleavage, active = 3.5 or more, inactive = 1 or less, 8 variable residues between constant flanks
- APPLIED_CONDITIONS: 30 min
Some of the results follow. The hit rate among all sequences tested is not known here.
Labels: active, inactive

>  <BIOPOLYMER_SEQUENCE>
CARTRRLLWAAGNASASA [FS-2097]

>  <QUALITATIVE_LABEL>
inactive

$$$$
>  <BIOPOLYMER_SEQUENCE>
CARTRRALSDAGNASASA [FS-3173]

>  <QUALITATIVE_LABEL>
active

$$$$
>  <BIOPOLYMER_SEQUENCE>
CARTPRGLDDAGNASASA [FS-3110]

>  <QUALITATIVE_LABEL>
active

$$$$
>  <BIOPOLYMER_SEQUENCE>
CASTPCSTHLAGNASASA [HC2538]

>  <QUALITATIVE_LABEL>
inactive

$$$$
>  <BIOPOLYMER_SEQUENCE>
CARTRRLLDKAGNASASA [FS-2834]

>  <QUALITATIVE_LABEL>
inactive

$$$$
>  <BIOPOLYMER_SEQUENCE>
CAEVVTATWVAGNASASA [HC141]

>  <QUALITATIVE_LABEL>
inactive

$$$$
>  <BIOPOLYMER_SEQUENCE>
CATSRSACQRAGNASASA [HC1391]

>  <QUALITATIVE_LABEL>
inactive

$$$$
